Biological target: T1, EsCas13d, nuclease-dead (Eubacterium siraeum, UniProt B0MS50, R295A;H300A;R849A;H854A)
T1 sequence: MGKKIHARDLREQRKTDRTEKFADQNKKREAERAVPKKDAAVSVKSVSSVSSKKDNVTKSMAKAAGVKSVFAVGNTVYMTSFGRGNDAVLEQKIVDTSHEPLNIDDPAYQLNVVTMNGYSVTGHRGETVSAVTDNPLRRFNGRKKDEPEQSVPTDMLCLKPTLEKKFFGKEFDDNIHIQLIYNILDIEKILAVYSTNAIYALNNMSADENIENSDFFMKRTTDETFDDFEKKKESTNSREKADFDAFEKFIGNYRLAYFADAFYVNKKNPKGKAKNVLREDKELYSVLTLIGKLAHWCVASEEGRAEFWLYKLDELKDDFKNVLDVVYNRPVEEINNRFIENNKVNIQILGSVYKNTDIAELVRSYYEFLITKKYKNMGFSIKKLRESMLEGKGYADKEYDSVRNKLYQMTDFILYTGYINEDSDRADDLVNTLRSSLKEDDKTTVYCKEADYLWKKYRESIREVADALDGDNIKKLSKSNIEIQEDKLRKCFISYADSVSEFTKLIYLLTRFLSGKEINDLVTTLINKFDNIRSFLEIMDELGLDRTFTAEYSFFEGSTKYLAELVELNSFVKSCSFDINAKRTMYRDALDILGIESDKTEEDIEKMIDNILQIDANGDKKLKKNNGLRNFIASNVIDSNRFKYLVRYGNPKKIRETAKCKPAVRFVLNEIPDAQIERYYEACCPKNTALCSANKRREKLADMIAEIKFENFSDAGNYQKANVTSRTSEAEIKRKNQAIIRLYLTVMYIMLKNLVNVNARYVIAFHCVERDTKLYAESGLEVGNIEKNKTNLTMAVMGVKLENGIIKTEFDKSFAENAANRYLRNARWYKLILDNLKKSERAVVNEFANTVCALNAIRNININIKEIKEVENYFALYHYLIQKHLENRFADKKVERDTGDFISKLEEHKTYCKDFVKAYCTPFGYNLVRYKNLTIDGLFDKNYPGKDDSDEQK
Assay: crRNA (strand 1, pre-loaded); Mg2+; 40 mM Tris-HCl pH 7.5, 150 mM NaCl, 6 mM MgCl2, 1 mM DTT, 0.1% Tween-20, 0.2 mg/ml BSA; 25 C; 10 min per concentration, then washed
Conditions: tags: His6-TwinStrep-SUMO cleaved; N-terminal SNAP kept (SNAP-Surface 488); label: 3' end held by stalled T7 RNA polymerase
# pKd values compiled below
In simple prose, pKd is minus the logarithm base ten of a concentration in moles per litre.

{"BINDER": "target 2 MT 5'PFS GUG 3'PFS ACU (mixed) RNA 1: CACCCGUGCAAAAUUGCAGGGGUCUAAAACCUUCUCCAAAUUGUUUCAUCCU RNA 2: GGGAAUGGAUCCACAUCUACGAAUUCGUGAGGAUGAAACAAUUUGGAGAAGACUAGAUCGGAAGAGCACACGU", "VALUE KIND": "pKd", "MEASURED NUMBER": 7.89}
{"BINDER": "target 2 MT 5'PFS CGA 3'PFS UUU (mixed) RNA 1: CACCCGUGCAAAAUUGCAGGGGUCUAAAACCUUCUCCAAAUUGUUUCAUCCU RNA 2: GGGAAUGGAUCCACAUCUACGAAUUCCGAAGGAUGAAACAAUUUGGAGAAGUUUAGAUCGGAAGAGCACACGU", "VALUE KIND": "pKd", "MEASURED NUMBER": 8.04}
{"BINDER": "target 1 A1G,U11G (mixed) RNA 1: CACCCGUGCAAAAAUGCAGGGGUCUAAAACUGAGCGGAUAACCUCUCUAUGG RNA 2: GGGAAUGGAUCCACAUCUACGAAUUCGUACCAUAGAGAGGGUAUCCGCUCGCCGAGAUCGGAAGAGCACACGU", "VALUE KIND": "pKd", "MEASURED NUMBER": 7.62}
{"BINDER": "target 3 insU 3' of 5,insC 3' of 5 (mixed) RNA 1: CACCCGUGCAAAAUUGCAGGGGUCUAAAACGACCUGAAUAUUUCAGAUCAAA RNA 2: GGGAAUGGAUCCACAUCUACGAAUUCGUUUUUGAUCUGAAAUAUUCAUCGGUCUGCAGAUCGGAAGAGCACACGU", "VALUE KIND": "pKd", "MEASURED NUMBER": 8.18}
{"BINDER": "target 2 MT 5'PFS GGU 3'PFS AGU (mixed) RNA 1: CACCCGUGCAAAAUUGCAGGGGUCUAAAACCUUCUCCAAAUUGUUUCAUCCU RNA 2: GGGAAUGGAUCCACAUCUACGAAUUCGGUAGGAUGAAACAAUUUGGAGAAGAGUAGAUCGGAAGAGCACACGU", "VALUE KIND": "pKd", "MEASURED NUMBER": 7.75}

QUERY: Consider the binder shown here: target 2 MT 5'PFS UUA 3'PFS AGC (mixed) RNA 1: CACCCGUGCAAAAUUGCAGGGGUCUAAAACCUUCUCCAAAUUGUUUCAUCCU RNA 2: GGGAAUGGAUCCACAUCUACGAAUUCUUAAGGAUGAAACAAUUUGGAGAAGAGCAGAUCGGAAGAGCACACGU What is its recorded pKd?
RESULT: 7.71

QUERY: Continue with target 3 del4,del22 (mixed) RNA 1: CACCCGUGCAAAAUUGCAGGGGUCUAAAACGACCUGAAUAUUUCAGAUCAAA RNA 2: GGGAAUGGAUCCACAUCUACGAAUUCGUUUUGAUCUGAAAUAUUCAGUCUGCAGAUCGGAAGAGCACACGU
RESULT: 7.78

QUERY: Continue with target 1 U3G,A9C (mixed) RNA 1: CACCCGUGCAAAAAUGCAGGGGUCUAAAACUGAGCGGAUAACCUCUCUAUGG RNA 2: GGGAAUGGAUCCACAUCUACGAAUUCGUACCAUAGAGAGGUUCUCCGCGCACCGAGAUCGGAAGAGCACACGU
RESULT: 8.03
